Recorded values, source patent US9518008B2.

Test: Determination of hygroscopicity (high humidity test)
Type: physicochemical
Conditions: Relative humidity 75%
Label key: Y means Hygroscopicity at the 5th day under 4%; N means Hygroscopicity at the 5th day of 4% or more.

- CCC(CC)[C@H](NC(C)=O)[C@H]1[C@H](O)[C@@H](C(=O)O)C[C@H]1NC(=N)N.O.O.O.O.O.O [Hexahydrate]: Y
- CCC(CC)[C@H](NC(C)=O)[C@H]1[C@H](O)[C@@H](C(=O)O)C[C@H]1NC(=N)N [Anhydrous, reference compound]: N
- CCC(CC)[C@H](NC(C)=O)[C@H]1[C@H](O)[C@@H](C(=O)O)C[C@H]1NC(=N)N.O.O.O [Trihydrate]: Y
- CCC(CC)[C@H](NC(C)=O)[C@H]1[C@H](O)[C@@H](C(=O)O)C[C@H]1NC(=N)N.O [Monohydrate]: Y

====

System: Influenza B virus (B/Jing Fang/76/98) neuraminidase
Test: Neuraminidase inhibition by fluorimetry with 4-MUNANA
Format: biochemical
Conditions: virus concentration NA 1/20; read-out: IC50
pIC50: −log10 of the molar value.
EXPERIMENTAL_READOUT: pIC50

• CCC(CC)[C@H](NC(C)=O)[C@H]1[C@H](O)[C@@H](C(=O)O)C[C@H]1NC(=N)N.O.O.O [Trihydrate] = 8.94

====

Listed next: entries and their corresponding Hygroscopicity at the 10th day.
Assay: Determination of hygroscopicity (high humidity test)
Format: physicochemical
Conditions: Relative humidity 92.5%, 25° C.
EXPERIMENTAL_READOUT: Hygroscopicity at the 10th day (%)

* CCC(CC)[C@H](NC(C)=O)[C@H]1[C@H](O)[C@@H](C(=O)O)C[C@H]1NC(=N)N [Anhydrous, reference compound] | 13.53
* CCC(CC)[C@H](NC(C)=O)[C@H]1[C@H](O)[C@@H](C(=O)O)C[C@H]1NC(=N)N.O.O.O.O.O.O [Hexahydrate] | 9.96
* CCC(CC)[C@H](NC(C)=O)[C@H]1[C@H](O)[C@@H](C(=O)O)C[C@H]1NC(=N)N.O [Monohydrate] | 3.35
* CCC(CC)[C@H](NC(C)=O)[C@H]1[C@H](O)[C@@H](C(=O)O)C[C@H]1NC(=N)N.O.O.O [Trihydrate] | 2.24
* CCC(CC)[C@H](NC(C)=O)[C@H]1[C@H](O)[C@@H](C(=O)O)C[C@H]1NC(=N)N.CCC(CC)[C@H](NC(C)=O)[C@H]1[C@H](O)[C@@H](C(=O)O)C[C@H]1NC(=N)N.O.O.O [Sesquihydrate] | 7.33

====

Experiment: Determination of hygroscopicity (high humidity test)
Format: physicochemical
Settings: Relative humidity 75%
Procedure: The hygroscopicity of the compound of the invention can be tested by a standard hygroscopicity test method. For example, the compound is stored in a sealed vessel at room temperature at a relative humidity of 92.5%, 80% or 75%, and the change in moisture content of the compound is tested by sampling at regular intervals. At the 5th and 10th days, the products were sampled and determined in aspect of important items relating to stability investigation. […]
EXPERIMENTAL_READOUT: Hygroscopicity at the 10th day (%)

• CCC(CC)[C@H](NC(C)=O)[C@H]1[C@H](O)[C@@H](C(=O)O)C[C@H]1NC(=N)N.O.O.O.O.O.O [Hexahydrate] = 6.33
• CCC(CC)[C@H](NC(C)=O)[C@H]1[C@H](O)[C@@H](C(=O)O)C[C@H]1NC(=N)N.O.O.O [Trihydrate] = 1.83
• CCC(CC)[C@H](NC(C)=O)[C@H]1[C@H](O)[C@@H](C(=O)O)C[C@H]1NC(=N)N.CCC(CC)[C@H](NC(C)=O)[C@H]1[C@H](O)[C@@H](C(=O)O)C[C@H]1NC(=N)N.O.O.O [Sesquihydrate] = 6.89
• CCC(CC)[C@H](NC(C)=O)[C@H]1[C@H](O)[C@@H](C(=O)O)C[C@H]1NC(=N)N.O [Monohydrate] = 2.77
• CCC(CC)[C@H](NC(C)=O)[C@H]1[C@H](O)[C@@H](C(=O)O)C[C@H]1NC(=N)N [Anhydrous, reference compound] = 12.88

====

Target: Influenza A virus (H3N2) neuraminidase (Influenza A virus, UniProt P03482)
Sequence (P03482 whole entry, looked up): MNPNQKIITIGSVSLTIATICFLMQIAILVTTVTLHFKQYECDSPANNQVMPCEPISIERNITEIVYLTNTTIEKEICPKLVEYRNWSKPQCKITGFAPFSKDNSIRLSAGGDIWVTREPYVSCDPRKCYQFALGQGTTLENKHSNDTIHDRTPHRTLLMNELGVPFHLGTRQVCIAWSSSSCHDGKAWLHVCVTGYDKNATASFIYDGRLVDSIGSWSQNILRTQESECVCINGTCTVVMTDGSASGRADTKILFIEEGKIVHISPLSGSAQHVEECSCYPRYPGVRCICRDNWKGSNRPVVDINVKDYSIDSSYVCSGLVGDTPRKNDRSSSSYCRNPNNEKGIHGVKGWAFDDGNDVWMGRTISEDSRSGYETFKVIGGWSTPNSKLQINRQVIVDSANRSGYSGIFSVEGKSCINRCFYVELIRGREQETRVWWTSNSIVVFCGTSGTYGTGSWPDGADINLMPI
Experiment: Neuraminidase inhibition by fluorimetry with 4-MUNANA
Assay type: biochemical
Details: average of NA 1/40 and NA 1/80; read-out: Average IC50
pIC50: −log10 of the molar value.
EXPERIMENTAL_READOUT: pIC50

* CCC(CC)[C@H](NC(C)=O)[C@H]1[C@H](O)[C@@H](C(=O)O)C[C@H]1NC(=N)N.O.O.O [Trihydrate] | 9.27

====

Each item that follows carries a reported Hygroscopicity at the 5th day.
Assay: Determination of hygroscopicity (high humidity test)
Format: physicochemical
Details: Relative humidity 92.5%, 25° C.
EXPERIMENTAL_READOUT: Hygroscopicity at the 5th day (%)

• CCC(CC)[C@H](NC(C)=O)[C@H]1[C@H](O)[C@@H](C(=O)O)C[C@H]1NC(=N)N.O.O.O.O.O.O [Hexahydrate] = 4.37
• CCC(CC)[C@H](NC(C)=O)[C@H]1[C@H](O)[C@@H](C(=O)O)C[C@H]1NC(=N)N.CCC(CC)[C@H](NC(C)=O)[C@H]1[C@H](O)[C@@H](C(=O)O)C[C@H]1NC(=N)N.O.O.O [Sesquihydrate] = 4.48
• CCC(CC)[C@H](NC(C)=O)[C@H]1[C@H](O)[C@@H](C(=O)O)C[C@H]1NC(=N)N.O [Monohydrate] = 2.83
• CCC(CC)[C@H](NC(C)=O)[C@H]1[C@H](O)[C@@H](C(=O)O)C[C@H]1NC(=N)N [Anhydrous, reference compound] = 8.38
• CCC(CC)[C@H](NC(C)=O)[C@H]1[C@H](O)[C@@H](C(=O)O)C[C@H]1NC(=N)N.O.O.O [Trihydrate] = 2.11

====

Biological target: Influenza A virus (H3N2) neuraminidase (Influenza A virus, UniProt P03482)
Experiment: Neuraminidase inhibition by fluorimetry with 4-MUNANA
Format: biochemical
Settings: virus concentration NA 1/40; read-out: IC50
EXPERIMENTAL_READOUT: IC50 (nM)

• CCC(CC)[C@H](NC(C)=O)[C@H]1[C@H](O)[C@@H](C(=O)O)C[C@H]1NC(=N)N.O.O.O [Trihydrate] = 0.673
